Sourced from the supplement of paper PMC11451515

tested on: NOMO1; assay: cell viability relative to DMSO control; higher = less cytotoxic; details: HPLM + 10% dialyzed FBS; 48 h; 5.12 µM
metricName: cell viability (%)
Kindly answer with a numeric value in %, unit omitted.

// query Give cell viability for the following compound: OC[C@H]1O[C@@H]2[C@@H](OC\3=N\C(=N)\C=C/[N@@]23)[C@@H]1O
// result 30.4

// query Give cell viability for the following compound: Cc1ncc([N+](=O)[O-])n1CC(C)O (centres undefined)
// result 117

// query Give cell viability for the following compound: N#C[C@H](O[C@@H]1O[C@H](CO[C@@H]2O[C@H](CO)[C@@H](O)[C@H](O)[C@H]2O)[C@@H](O)[C@H](O)[C@H]1O)c1ccccc1
// result 103

// query Give cell viability for the following compound: C1CCN2C[C@H]3C[C@H](\C=C/4CCCN[C@@H]34)[C@H]2C1
// result 115

// query Give cell viability for the following compound: Cn1cc(C[C@@H](N)C(=O)O)c2ccccc21
// result 101

// query Give cell viability for the following compound: C[S+](=O)([O-])c1ccc(Oc2cc(F)cc(C#N)c2)c2c1[C@H](O)C(F)(F)C2
// result 112

// query Give cell viability for the following compound: C[C@@]1(C(=O)Nc2ccc(F)nc2)CCCN1c1nc(Nc2cc(C3CC3)[nH]n2)c2cccn2n1
// result 44.9

// query Give cell viability for the following compound: NC(=O)NO
// result 16.6

// query Give cell viability for the following compound: C[C@H]1COC/2=C1/C(=O)C(=O)C3=C4CCCC(C)(C)C4=CC=C23
// result 158

// query Give cell viability for the following compound: Nc1nc(Cl)nc2c1ncn2[C@@H]1O[C@H](CO)[C@@H](O)[C@@H]1F
// result 21.2

// query Give cell viability for the following compound: COc1cc(CNC(=O)CCCC/C=C/C(C)C)ccc1O
// result 79.1

// query Give cell viability for the following compound: NC(=O)Nc1cc(-c2cccc(F)c2)sc1C(=O)N[C@H]1CCCNC1
// result 24.7

// query Give cell viability for the following compound: C#CCN[C@@H]1CCc2ccccc21.CS(=O)(=O)O
// result 93.9

// query Give cell viability for the following compound: N=C1N[C@H]2[C@H](CS[C@H]2CCCCC(=O)O)N1
// result 138

// query Give cell viability for the following compound: CC(C)Cc1ccc(C(C)C(=O)O)cc1 (centres undefined)
// result 82

// query Give cell viability for the following compound: CC(NCCc1ccc(O)cc1)C(O)c1ccc(O)cc1 (centres undefined)
// result 118

// query Give cell viability for the following compound: O=C(Nc1cccnn1)N1CCC(=Cc2cccc(Oc3ccc(C(F)(F)F)cn3)c2)CC1
// result 110

// query Give cell viability for the following compound: O.O.CCN1CCN(C(=O)N[C@H](C(=O)N[C@H]2[C@@H]3SC\C(=C(/N3C2=O)C(O)=O)CSC4=NN=N[N]4C)C5=CC=C(O)C=C5)C(=O)C1=O
// result 101

// query Give cell viability for the following compound: CC(C)(O)/C=C\C(=O)[C@](C)(O)[C@H]1[C@H](O)C[C@]2(C)[C@@H]3CC=C4[C@@H](C=C(O)C(=O)C4(C)C)[C@]3(C)C(=O)C[C@@]12C
// result 14.5

====

tested on: SEM cells; assay: cell viability relative to DMSO control; higher = less cytotoxic; conditions: HPLM + 10% dialyzed FBS; 48 h; 15.4 µM
Assign cell viability to each entry below.
Kindly answer with a numeric value in %, unit omitted.

// query Give cell viability for the following compound: O=C1NC(=O)/C(=C/c2ccc(-c3ccc(F)cc3O)o2)S1
// result 94.1

// query Give cell viability for the following compound: COc1ccc2cc1Oc1ccc(cc1)C[C@H]1c3cc(c(OC)cc3CCN1C)Oc1c(OC)c(OC)cc3c1[C@H](C2)N(C)CC3
// result 102

// query Give cell viability for the following compound: C[C@]12CCC\3=C\4CCC(=O)\C=C4CC[C@H]3[C@@H]1CC[C@@]2(O)CC#N
// result 132

// query Give cell viability for the following compound: CNC(=O)Nc1ccc(-c2nc(N3CC4CCC(C3)O4)c3cnn(C4CCC5(CC4)OCCO5)c3n2)cc1
// result 34.3

// query Give cell viability for the following compound: Nc1ncnc2c1c(-c1cccc(OCc3ccccc3)c1)cn2C1CC(CN2CCCC2)C1 (centres undefined)
// result 45.4

// query Give cell viability for the following compound: C[S+](=O)([O-])c1ccc(Oc2cc(F)cc(C#N)c2)c2c1[C@H](O)C(F)(F)C2
// result 106

// query Give cell viability for the following compound: Cc1ccc2c(c1)c1c(n2CCc2ccc(C)nc2)CCN(C)C1
// result 120

// query Give cell viability for the following compound: NC(=O)NO
// result 13.8

// query Give cell viability for the following compound: N#C[C@H](O[C@@H]1O[C@H](CO[C@@H]2O[C@H](CO)[C@@H](O)[C@H](O)[C@H]2O)[C@@H](O)[C@H](O)[C@H]1O)c1ccccc1
// result 114

====

system: SEM cells; assay: cell viability relative to DMSO control; higher = less cytotoxic; details: HPLM + 10% dialyzed FBS; 48 h; 0.00702 µM
metricName: cell viability (%)
Kindly answer with a numeric value in %, unit omitted.

// query Give cell viability for the following molecule: COc1cc(/C=C/C(=O)O)ccc1O
// result 64.5

// query Give cell viability for the following molecule: O=C(O)CCCc1c[nH]c2ccccc12
// result 130

// query Give cell viability for the following molecule: CCOC1=CC=CC=C1N\2C(=O)C3=C(C=CC=C3)\N=C2C(C)N4CCN(CC4)C(=O)COC5=CC=C(Cl)C=C5 (centres undefined)
// result 111

// query Give cell viability for the following molecule: N#Cc1ccc(C(c2ccc(C#N)cc2)n2cncn2)cc1
// result 131

====

Assign cell viability to each entry below.
tested on: P12-Ichikawa; test: cell viability relative to DMSO control; higher = less cytotoxic; details: RPMI 5 mM glucose + 10% dialyzed FBS; 48 h; 15.4 µM
Kindly answer with a numeric value in %, unit omitted.

// query Recall the reported cell viability of C=CCc1ccc(O)c(-c2ccc(O)c(CC=C)c2)c1 when tested on P12-Ichikawa.
// result 21.3

// query Recall the reported cell viability of COc1ncc(-c2ccc3c(Nc4cc(Oc5cc(F)cc(F)c5)cc(C(=O)O)c4)c([S+](=O)([O-])NC4CC4)cnc3c2)c(OC)n1 when tested on P12-Ichikawa.
// result 82.8

// query Recall the reported cell viability of OCCn1cc(-c2cnc3nnn(Cc4ccc5ncccc5c4)c3n2)cn1 when tested on P12-Ichikawa.
// result 96.9

// query Recall the reported cell viability of CN1CCN(C(=O)O[C@H]2c3nccnc3C(=O)N2c2ccc(Cl)cn2)CC1 when tested on P12-Ichikawa.
// result 93.6

// query Recall the reported cell viability of CNC(=O)[C@H](CC/1=C/N=C\2/C=C\C\C=C12)NC(=O)[C@H](CC(C)C)CC(=O)NO when tested on P12-Ichikawa.
// result 24.7

// query Recall the reported cell viability of COc1cccc2c1[C@]13CCN(CC4CC4)[C@H](C2)[C@]1(OC)CCC(=O)C3 when tested on P12-Ichikawa.
// result 127

// query Recall the reported cell viability of N#C/C(C(=O)c1ccc(Cl)cc1Cl)=C1/NC(=O)c2ccc(Cl)cc2N1 when tested on P12-Ichikawa.
// result 101

// query Recall the reported cell viability of CC/1=C(\O)C(=O)\C=C2/C1=C/C=C3\[C@@]2(C)CC[C@@]4(C)[C@@H]5C[C@@](C)(CC[C@]5(C)CC[C@]34C)C(O)=O when tested on P12-Ichikawa.
// result 5.81

// query Recall the reported cell viability of COC(=O)\C1=C\CCN(C)C1 when tested on P12-Ichikawa.
// result 99

====

test system: NOMO1; test: AUC of viability dose-response curve (% viability x log10 dose units); higher = less sensitive; settings: RPMI 5 mM glucose + 10% dialyzed FBS; 48 h
Assign AUC of viability dose-response curve to each entry below.
Could you respond with only the numeric value?

// query Give AUC of viability dose-response curve for the following molecule: CC1=CC=C(C=C1)\C2=N\C3=CC=C(Cl)C=C3OC2
// result 457

// query Give AUC of viability dose-response curve for the following molecule: CC[C@]1(O)C[C@@H]2CN(CCc3c([nH]c4ccccc34)[C@@](C(=O)OC)(c3cc4c(cc3OC)N(C)[C@H]3[C@@](O)(C(N)=O)[C@H](O)[C@]5(CC)C=CCN6CC[C@]43[C@@H]65)C2)C1
// result 278

// query Give AUC of viability dose-response curve for the following molecule: COc1ccc2cc1Oc1ccc(cc1)C[C@H]1c3cc(c(OC)cc3CCN1C)Oc1c(OC)c(OC)cc3c1[C@H](C2)N(C)CC3
// result 452

// query Give AUC of viability dose-response curve for the following molecule: Cc1onc(-c2ccccc2)c1C(=O)N[C@@H]1C(=O)N2[C@@H]1SC(C)(C)[C@@H]2C(=O)[O-].[Na+]
// result 401

// query Give AUC of viability dose-response curve for the following molecule: O=C(O)CC/C=C\CC[C@@H]1[C@@H](N2CCCCC2)[C@@H](O)C[C@@H]1OCc1ccc(-c2ccccc2)cc1
// result 457

// query Give AUC of viability dose-response curve for the following molecule: C[C@]12CCC\3=C\4CCC(=O)\C=C4CC[C@H]3[C@@H]1CC[C@@]2(O)CC#N
// result 454

// query Give AUC of viability dose-response curve for the following molecule: CNC(=O)Nc1ccc(-c2nc(N3CC4CCC(C3)O4)c3cnn(C4CCC5(CC4)OCCO5)c3n2)cc1
// result 338
